Molecular target: Mitogen-activated protein kinase kinase kinase 5 (Homo sapiens, UniProt Q99683)
Sequence (Q99683 whole entry): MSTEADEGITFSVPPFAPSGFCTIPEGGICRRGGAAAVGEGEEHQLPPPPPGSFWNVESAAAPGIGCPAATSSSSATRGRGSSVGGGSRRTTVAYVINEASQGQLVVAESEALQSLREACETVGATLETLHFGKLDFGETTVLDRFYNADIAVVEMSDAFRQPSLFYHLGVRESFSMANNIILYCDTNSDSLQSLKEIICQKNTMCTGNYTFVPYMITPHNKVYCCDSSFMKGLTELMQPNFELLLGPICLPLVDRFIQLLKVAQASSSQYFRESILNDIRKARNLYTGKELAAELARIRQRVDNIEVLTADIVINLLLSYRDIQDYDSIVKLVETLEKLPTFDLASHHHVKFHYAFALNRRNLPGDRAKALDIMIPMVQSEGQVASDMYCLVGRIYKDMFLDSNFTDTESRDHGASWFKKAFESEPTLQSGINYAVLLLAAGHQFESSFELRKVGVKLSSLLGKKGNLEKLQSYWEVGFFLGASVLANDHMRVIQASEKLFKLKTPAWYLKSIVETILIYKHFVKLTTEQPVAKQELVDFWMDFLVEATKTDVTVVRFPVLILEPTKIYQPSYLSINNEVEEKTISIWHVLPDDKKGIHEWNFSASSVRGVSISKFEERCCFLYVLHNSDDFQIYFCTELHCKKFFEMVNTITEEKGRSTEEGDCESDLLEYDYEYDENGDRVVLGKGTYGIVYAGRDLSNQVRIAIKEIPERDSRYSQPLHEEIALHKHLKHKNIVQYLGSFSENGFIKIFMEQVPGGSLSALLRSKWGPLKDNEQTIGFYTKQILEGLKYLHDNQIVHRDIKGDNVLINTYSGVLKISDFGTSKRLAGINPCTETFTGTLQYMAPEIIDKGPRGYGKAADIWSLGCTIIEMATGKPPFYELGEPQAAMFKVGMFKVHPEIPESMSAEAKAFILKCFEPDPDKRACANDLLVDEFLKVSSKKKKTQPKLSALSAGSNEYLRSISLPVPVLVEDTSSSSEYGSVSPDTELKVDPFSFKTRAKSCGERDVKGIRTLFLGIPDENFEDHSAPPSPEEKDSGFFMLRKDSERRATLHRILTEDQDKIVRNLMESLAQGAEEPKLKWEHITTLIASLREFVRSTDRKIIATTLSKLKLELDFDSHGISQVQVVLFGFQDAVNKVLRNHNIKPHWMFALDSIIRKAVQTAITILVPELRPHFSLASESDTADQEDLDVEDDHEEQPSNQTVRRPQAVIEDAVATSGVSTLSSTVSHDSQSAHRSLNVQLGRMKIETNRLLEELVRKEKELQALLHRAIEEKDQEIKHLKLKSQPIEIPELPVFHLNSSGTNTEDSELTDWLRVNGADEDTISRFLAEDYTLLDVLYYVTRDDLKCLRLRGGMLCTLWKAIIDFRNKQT
Assay: Inhibition of human full length recombinant ASK1 using STK-Substrate-3 biotin as substrate in presence of ATP measured after 2 hrs by […] kinase assay
measuredAttribute: IC50 (nM)
Field format: number, assumed nM, no unit text.

Take a look at these entries with their results.
O=C(Nc1cccc(-c2n[nH]c3ccc(-c4nnc[nH]4)cc23)c1)c1ccc(C(F)(F)F)cc1 :: 532
CC(C)n1cnnc1-c1ccc2[nH]nc(-c3cccc(-n4cnc(C5CC5)c4)c3)c2c1 :: 62.2
CC(C)n1cnnc1-c1ccc2[nH]nc(-c3cccc(-c4cnn(C)c4)c3)c2c1 :: 63.6
COc1cc(-c2n[nH]c3ccc(-c4nncn4C(C)C)cc23)cc(-n2cnc(C3CC3)c2)c1 :: 48.6
c1cc(-c2n[nH]c3ccc(-c4nncn4C4CCCCC4)cc23)cc(-n2cnc(C3CC3)c2)c1 :: 243

Find the recorded IC50 belonging to CC(C)n1cnnc1-c1ccc2[nH]nc(-c3cccc(-c4ccnn4C)c3)c2c1 and report it.
855

Find the recorded IC50 belonging to CCS(=O)(=O)Nc1cccc(-c2n[nH]c3ccc(-c4nncn4C(C)C)cc23)c1 and report it.
19.8

Find the recorded IC50 belonging to CC(C)n1cnnc1-c1ccc2[nH]nc(-c3ccc(N4CCOCC4)c(-n4cnc(C5CC5)c4)c3)c2c1 and report it.
31.8

Find the recorded IC50 belonging to c1cc(-c2n[nH]c3ccc(-c4nncn4C4CCC4)cc23)cc(-n2cnc(C3CC3)c2)c1 and report it.
70

The measurements presented in this section are drawn from ChEMBL document CHEMBL4837198.
